I'd be grateful if you could share measured pKi for these entries.
Target: Cathepsin K (Homo sapiens, UniProt P43235)
Sequence (P43235 whole entry): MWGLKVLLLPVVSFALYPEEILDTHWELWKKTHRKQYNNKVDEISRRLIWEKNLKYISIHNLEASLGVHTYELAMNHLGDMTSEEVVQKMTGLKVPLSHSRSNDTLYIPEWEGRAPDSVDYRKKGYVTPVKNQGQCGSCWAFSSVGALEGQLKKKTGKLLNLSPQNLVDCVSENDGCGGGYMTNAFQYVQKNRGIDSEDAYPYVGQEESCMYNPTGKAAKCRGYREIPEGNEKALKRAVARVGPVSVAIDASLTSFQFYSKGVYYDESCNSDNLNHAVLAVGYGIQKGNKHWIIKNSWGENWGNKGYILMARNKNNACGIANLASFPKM
Test: Competitive inhibition of human recombinant cathepsin K using Z-FR-MCA fluorogenic substrate by Handerson plot analysis
Give bare numbers, as −log10 of the molar value.

[[record]]
compound = "CC(C)[C@H](NC(=O)[C@H](CCCNC(=N)N)NC(=O)N[C@@H](Cc1ccccc1)C(=O)O)C(=O)NC1CCCN(C(=N)N)C1O (stereo in doubt; form 2)"
value_reported = 7.39


// next item, pKi requested
Bench note, Cathepsin K (Homo sapiens, UniProt P43235): CC(C)[C@H](NC(=O)[C@H](CO)NC(=O)NCCCCNC(=N)N)C(=O)N[C@H]1CCCN(C(=N)N)C1O (some centres not stated) , pKi reads 7.96
